Origin of values: the supplement of paper PMC4649846

- Test system: MDA-MB-231
- SETUP CONDITIONS: incubation time: 72 h; siRNA: siBRCA1
REPORTED ENDPOINT: IC50 of cell viability (µM)
Provide only the numeric value, understood in µM.

Recorded IC50 of cell viability, per entry:
COMPOUND STRUCTURE STRING | RESULT VALUE
CO[C@@H]1[C@H](N(C)C(=O)c2ccccc2)C[C@H]2O[C@]1(C)n1c3ccccc3c3c4c(c5c6ccccc6n2c5c31)C(=O)NC4 | 0.517
COc1cccc2c1C(=O)c1c(O)c3c(c(O)c1C2=O)C[C@@](O)(C(=O)CO)C[C@@H]3O[C@H]1C[C@H](N)[C@H](O)[C@H](C)O1 | 0.205

Asked: I would be grateful if you could share the reported IC50 of cell viability for "CO[C@H]1C[C@@H]2CC[C@@H](C)[C@@](O)(O2)C(=O)C(=O)N2CCCC[C@H]2C(=O)O[C@H]([C@H](C)C[C@@H]2CC[C@@H](OC(=O)C(C)(CO)CO)[C@H](OC)C2)CC(=O)[C@H](C)/C=C(\C)[C@@H](O)[C@@H](OC)C(=O)[C@H](C)C[C@H](C)/C=C/C=C/C=C/1C" .
Given back: 0.0039

###

- Tested on: MDA-MB-231
- SETUP CONDITIONS: incubation time: 72 h; siRNA: siBRCA1
Measured IC50 of cell viability accompanies every entry in the list below.
Provide only the numeric value, understood in nM.

COMPOUND | IC50 of cell viability, nM
CS(=O)(=O)N1CCN(Cc2cc3nc(-c4cccc5[nH]ncc45)nc(N4CCOCC4)c3s2)CC1 [GDC-0941 (Pictilisib)] | 2530
CO[C@H]1/C=C\C=C(/C)C(=O)NC2=CC(=O)C(NCCN(C)C)=C(C[C@@H](C)C[C@H](OC)[C@H](O)[C@@H](C)/C=C(\C)[C@@H]1OC(N)=O)C2=O [Alvespimycin] | 128

Now turn to the next compound.
Asked: I would be grateful if you could share the reported IC50 of cell viability for Nc1nc2[nH]cnc2c(=S)[nH]1 [Thioguanine] .
Given back: 1850
